Listed here: items and their measured GFP+% of LAIR1 reporter cells, collagen I coated, soluble Ab.
Target: T1, LAIR1 on LAIR1 reporter cells (human, UniProt Q6GTX8 22-165, limits assumed); note: test concentration or dose not given here
T1 chain: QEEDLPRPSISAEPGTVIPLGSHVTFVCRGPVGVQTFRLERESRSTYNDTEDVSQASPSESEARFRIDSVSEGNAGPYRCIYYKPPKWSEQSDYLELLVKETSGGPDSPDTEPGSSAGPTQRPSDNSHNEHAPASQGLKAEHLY
Test: cell-based or functional assay
Quick note: give the figure in %, leave out the unit.

Given the binder LA-37 (antibody, V domains shown, Rabbit monoclonal IgG; also called mAb LA-37) VH: EQSLEESGGDLVKPGASLTLTCKASGFSFSSSEFMCWVRQAPGKGLEWIACIYGGLSDDTYFASWAKGRFTISKTSSITVTLQMTSLTAADTATYFCARSCDVNYYGFDPWGPGTLVTISS VL: ELVLTQTPAPVSAAVGDTVTIKCQASQNKGTNLAWYQQKPGQPPKLLIYLSSTLASGVPPRFKGSRSGTEYTLTISDLECADAATYFCQSTYYGSNGLTFGGGTEVEIK , what is its reported GFP+% of LAIR1 reporter cells, collagen I coated, soluble Ab?
0.86

Quick one: GFP+% of LAIR1 reporter cells, collagen I coated, soluble Ab of LA-219 (antibody, V domains shown, Rabbit monoclonal IgG; Called a potential antagonist antibody) VH: EQSVESGGGLITPGGTLTLTCTASGFTVTRYYMNWVRQAPGKGLEWIGYIYASSKTYYANWAKGRFTISKTSTTVDLKMTSLTAEDTGTYFCARGGVGNSGLNLDLWGPGTLVTISS VL: ELDMTQTPASVSEPVGGTVTIKCQASQSIGSWLAWYQQKPGQPPKLLIYQASRLASGVSSRFGGSGSGTEFTLTISDLECADAATYYCQQAEYSGDVENTFGGGTEVVVK ?
0.924

// moving on: another record for GFP+% of LAIR1 reporter cells, collagen I coated, soluble Ab
# GFP+% of LAIR1 reporter cells, collagen I coated, soluble Ab lookup, item LA-151 (antibody, V domains shown, Rabbit monoclonal IgG) VH: SSSVEESGGRLVTPGTPLTLTCTVSGFSLGSYAMGWVRQGPGKGLEWIGAVYGTTGYIYFATWAKGRFTISKTSTTVDLKITSPTTEDTATYFCARGYLTDSIANGFGVWGPGTLVTVSS VL: ELDLTQTPASVSEPVGGTVTIKCQASQTITNRYLAWYQQKPGQPPKLLIYQSSKLASGVSSRFKGSGSGTDFTLTISDLECADAATYYCQCTDYGSTYLGTFGGGTEVEIK
0.678
